# TGT: IL16_1, Q14005
# Sequence (Q14005 210-306): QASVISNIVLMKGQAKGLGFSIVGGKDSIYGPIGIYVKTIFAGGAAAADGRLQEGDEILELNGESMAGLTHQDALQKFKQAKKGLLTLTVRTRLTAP
# EXPERIMENT: holdup assay
# Design: key: below the threshold = too weak to quantify, mostly under pKd 3.1 to 4
# CONDITION: plain residues with an end cap or a label only (N-terminal biotin on a linker: ado-ado)

BINDER	pKd
DRIQSCLSDA [SBF1, O95248]	below the threshold
ELSATVTTDC [TRIP6, Q15654]	below the threshold
SVTSERETNI [SLC16A7, O60669]	below the threshold
